Provide the recorded log10 of microsomal CLint at 1 µM for the entries that follow.
assay: Intrinsic clearance in human liver microsomes at 1 uM measured for 60 mins by LC-MS/MS analysis; assay type: ADME, Microsome; settings: read-out: CLH
Lab note - microsomal CLint at 1 µM converted to log10 from values in µL/min/mg.

Task: Look at this compound and give its reported log10 of microsomal CLint at 1 µM. CC(C)(C)n1nc(Cl)c2c(C(=O)N3CCOc4ccccc43)cc(C3CC3)nc21
Result: 2.19

Task: Bench note: what log10 of microsomal CLint at 1 µM did COc1nn(C(C)(C)C)c2nc(C3CC3)cc(C(=O)N3CCOc4ccccc43)c12 show?
Result: 2.48

Task: Entry Cc1nn(C(C)(C)C)c2nc(C3CC3)cc(C(=O)N3CCOc4ccccc43)c12 : reported log10 of microsomal CLint at 1 µM = ?
Result: 2.31

Task: Any idea what log10 of microsomal CLint at 1 µM was measured for Cc1nn(C(C)(C)C)c2nc(C3CC3)cc(C(=O)N3CCN(C)c4ccccc43)c12 ?
Result: 2.59

Task: Fill blank: measured log10 of microsomal CLint at 1 µM of the compound Cc1nn(C(C)C)c2nc(C3CC3)cc(C(=O)N3CCOc4ccccc43)c12 is ____.
Result: 2.63

Task: Using the record for Cc1nn(C(C)(C)C)c2nc(C3CC3)cc(C(=O)N3CCOc4cc(F)ccc43)c12 , report its log10 of microsomal CLint at 1 µM.
Result: 2.20

Task: Query (compound): Cc1nn(C(C)(C)C)c2nc(C3CC3)cc(C(=O)N3CCCc4ccccc43)c12 ; field requested: log10 of microsomal CLint at 1 µM
Result: 2.44

Task: Please report the recorded log10 of microsomal CLint at 1 µM for Cc1nn(C(C)(C)C)c2nc(C3CC3)cc(C(=O)N3CCNc4ccccc43)c12 .
Result: 2.67

Task: Name the reported log10 of microsomal CLint at 1 µM value associated with the compound Cc1nn(C(C)(C)C)c2nc(C3CC3)cc(C(=O)N3CCOc4ccc(F)cc43)c12
Result: 2.00

Task: Need log10 of microsomal CLint at 1 µM, item Cc1nn(C(C)(C)C)c2nc(C3CC3)cc(C(=O)N3CCOc4ccncc43)c12
Result: 2.06

Task: Which log10 of microsomal CLint at 1 µM value belongs to Cc1nn(C(C)C)c2nc(C3CC3)cc(C(=O)N3CCOc4ccncc43)c12 ?
Result: 1.43

Task: Give its log10 of microsomal CLint at 1 µM value. Item: COc1nn(C(C)(C)C)c2nc(C3CC3)cc(C(=O)N3CCOc4ccncc43)c12
Result: 2.63

###

biological target: CYP2D6 (Homo sapiens, UniProt P10635); experiment: Inhibition of CYP2D6 (unknown origin) at 1 uM relative to control; format: ADME
Sequence (P10635 whole entry): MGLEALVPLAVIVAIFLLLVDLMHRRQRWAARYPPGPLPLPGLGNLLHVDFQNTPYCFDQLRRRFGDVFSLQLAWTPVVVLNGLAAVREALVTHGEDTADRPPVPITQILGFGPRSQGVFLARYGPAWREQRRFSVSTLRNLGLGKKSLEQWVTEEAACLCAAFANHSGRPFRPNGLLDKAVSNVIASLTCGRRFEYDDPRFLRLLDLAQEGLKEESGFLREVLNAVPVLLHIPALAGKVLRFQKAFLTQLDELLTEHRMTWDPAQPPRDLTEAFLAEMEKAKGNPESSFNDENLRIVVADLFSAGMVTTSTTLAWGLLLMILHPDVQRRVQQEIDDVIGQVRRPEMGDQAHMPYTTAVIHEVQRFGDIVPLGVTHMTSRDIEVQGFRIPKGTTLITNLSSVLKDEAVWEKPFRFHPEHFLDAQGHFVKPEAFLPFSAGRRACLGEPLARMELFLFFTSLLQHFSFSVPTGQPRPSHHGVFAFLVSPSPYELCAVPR
experimental endpoint: inhibition at 1 µM (%)
Give just the numeric value; % need not be written.

Task: Fill in the blank: the reported inhibition at 1 µM of Cc1nn(C(C)(C)C)c2nc(C3CC3)cc(C(=O)N3CCOc4ccncc43)c12 is ____.
Result: 43.8

###

target: CYP2D6 (Homo sapiens); assay: Inhibition of CYP2D6 (unknown origin) at 10 uM relative to control; type: ADME
experimental endpoint: inhibition at 10 µM (%)
Form entry: value (%) — number only.

Task: Tell me the measured inhibition at 10 µM of Cc1nn(C(C)(C)C)c2nc(C3CC3)cc(C(=O)N3CCOc4ccncc43)c12 , please.
Result: 86.4

###

test: Lipophilicity, elogD of the compound in 1-Octanol/PBS at pH 7.4 at 7.5 uM incubated for 2 hrs by miniaturized shake flask method; assay type: physicochemical
Binary classification by logD at 2 h, 7.5 µM, with 5 as an inclusive lower bound for yes; all other cases are no.

Task: Kindly determine if logD at 2 h, 7.5 µM recorded for COc1nn(C(C)C)c2nc(C3CC3)cc(C(=O)N3CCOc4ccncc43)c12 is above or exactly 5.
Result: no

Task: Is logD at 2 h, 7.5 µM at least 5? Consider Cc1nn(C(C)(C)C)c2nc(C3CC3)cc(C(=O)N3CCNc4ccccc43)c12
Result: no

Task: Is it the case that Cc1nn(C(C)(C)C)c2nc(C3CC3)cc(C(=O)N3CCOc4ccccc43)c12 has logD at 2 h, 7.5 µM reaching or exceeding 5?
Result: yes

Task: Could you please find out whether Cc1nn(C(C)(C)C)c2nc(C3CC3)cc(C(=O)N3CCOc4cc(F)ccc43)c12 has logD at 2 h, 7.5 µM that meets 5 or exceeds it?
Result: yes

Task: Item COc1nn(C(C)(C)C)c2nc(C3CC3)cc(C(=O)N3CCOc4ccccc43)c12 with logD at 2 h, 7.5 µM of 5 or above?
Result: yes

Task: # check: logD at 2 h, 7.5 µM of Cc1nn(C(C)(C)C)c2nc(C3CC3)cc(C(=O)N3CCN(C)c4ccccc43)c12 is greater than or equal to 5
Result: yes

Task: Determine whether this compound has logD at 2 h, 7.5 µM no lower than 5: Cc1nn(C(C)C)c2nc(C3CC3)cc(C(=O)N3CCOc4ccccc43)c12
Result: no

Task: Record Cc1nn(C(C)(C)C)c2nc(C3CC3)cc(C(=O)N3CCOc4ccc(F)cc43)c12 ; criterion: logD at 2 h, 7.5 µM no lower than 5. Met?
Result: yes

Task: Would you say Cc1nn(C(C)C)c2nc(C3CC3)cc(C(=O)N3CCOc4ccncc43)c12 shows logD at 2 h, 7.5 µM at minimum 5?
Result: no

Task: Is reported logD at 2 h, 7.5 µM greater than or equal to 5 here: Cc1nn(C(C)(C)C)c2nc(C3CC3)cc(C(=O)N3CCOc4ccncc43)c12
Result: no

Task: Does logD at 2 h, 7.5 µM meet or surpass 5 for Cc1nn(C(C)(C)C)c2nc(C3CC3)cc(C(=O)N3CCCc4ccccc43)c12 ?
Result: yes

Task: For this compound, is measured logD at 2 h, 7.5 µM 5 or higher? CC(C)(C)n1nc(Cl)c2c(C(=O)N3CCOc4ccccc43)cc(C3CC3)nc21
Result: yes

###

experiment: Cytotoxicity against human HepG2 cells assessed as inhibition of cell growth incubated for 48 hrs by CellTiter-Glo luminescence assay; format: toxicity, cell-based
experimental endpoint: CC50 at 48 h

Task: Request the reported CC50 at 48 h associated with CC1CN(C(=O)c2cc(-c3ccccc3)nc3c2cnn3C(C)C)CCO1 (stereo not given)
Result: > 40 µM

Task: For Cc1nn(C(C)(C)C)c2nc(C3CC3)cc(C(=O)N3CCOCC3)c12 , what is its reported CC50 at 48 h?
Result: > 40 µM

Task: Which CC50 at 48 h reading was recorded for the compound COc1nn(C(C)C)c2nc(C3CC3)cc(C(=O)N3CCOc4ccncc43)c12 ?
Result: 28.7 µM

Task: I have this compound here, Cc1nn(C(C)(C)C)c2nc(C3CC3)cc(C(=O)N3CCOc4cccnc43)c12 , and I need its recorded CC50 at 48 h.
Result: > 10 µM

Task: Can you share its CC50 at 48 h? I mean this compound: Cc1nn(C(C)(C)C)c2nc(C3CC3)cc(C(=O)N3CCN(C)c4ccccc43)c12
Result: > 40 µM

Task: Form field: reported CC50 at 48 h of CCc1cc(C(=O)N2CCOc3ccccc32)c2c(C)nn(C(C)(C)C)c2n1
Result: > 40 µM

Task: Recorded CC50 at 48 h of Cc1nn(C(C)C)c2nc(C3CC3)cc(C(=O)N3CCOc4ccccc43)c12 , please.
Result: > 40 µM

Task: Consider the compound COc1ccccc1CNC(=O)c1cc(C2CC2)nc2c1cnn2C(C)C and give its measured CC50 at 48 h.
Result: > 40 µM

Task: Could you tell me which CC50 at 48 h is on file for Cc1cc(C(=O)N2CCOc3ccccc32)c2c(C)nn(C(C)(C)C)c2n1 ?
Result: > 40 µM

Task: Could you tell me which CC50 at 48 h is on file for Cc1nn(C(C)(C)C)c2nc(C3CC3)cc(C(=O)N3CCOc4ccccc43)c12 ?
Result: > 40 µM

###

test: Efflux ratio of permeability across basolateral to apical side over apical to basolateral side in human Caco-2 cells at pH 7.4; type: ADME, cell-based; conditions: Caco-2, pH 7.4
experimental endpoint: efflux ratio

Task: efflux ratio lookup needed for Cc1nn(C(C)(C)C)c2nc(C3CC3)cc(C(=O)N3CCOc4ccncc43)c12 , thanks.
Result: 1.4

###

biological target: CYP2C9 (Homo sapiens, UniProt P11712); experiment: Inhibition of CYP2C9 (unknown origin) at 1 uM relative to control; assay type: ADME
Sequence (P11712 whole entry): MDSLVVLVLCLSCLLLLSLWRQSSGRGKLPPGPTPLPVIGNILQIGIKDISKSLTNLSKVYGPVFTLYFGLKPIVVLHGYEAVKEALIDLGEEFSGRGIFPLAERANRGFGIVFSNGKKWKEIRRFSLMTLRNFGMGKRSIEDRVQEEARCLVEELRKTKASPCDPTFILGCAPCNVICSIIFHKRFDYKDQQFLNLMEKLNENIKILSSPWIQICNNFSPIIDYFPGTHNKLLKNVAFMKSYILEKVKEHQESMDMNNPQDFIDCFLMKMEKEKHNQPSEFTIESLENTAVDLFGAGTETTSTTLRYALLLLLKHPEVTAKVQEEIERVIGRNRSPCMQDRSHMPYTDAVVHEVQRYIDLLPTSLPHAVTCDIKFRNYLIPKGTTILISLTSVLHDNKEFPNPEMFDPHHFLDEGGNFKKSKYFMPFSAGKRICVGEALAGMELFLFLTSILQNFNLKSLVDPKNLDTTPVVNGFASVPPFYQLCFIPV
experimental endpoint: inhibition at 1 µM (%)
Your answer is read as %, so omit the unit and give the number.

Task: Param item = Cc1nn(C(C)(C)C)c2nc(C3CC3)cc(C(=O)N3CCOc4ccncc43)c12 ; retrieve measured inhibition at 1 µM.
Result: 12.8
